experimentDescription: pK'a determination
Format: physicochemical
Structures can show the parent of a compound that is named as a salt.
testReadout: pKa

CC(CCN)c1cccc(Oc2ccccc2)c1 (centres unmarked) [hydrochloride] = 10
C=CCN(C)CC(C)c1cccc(Oc2ccccc2)c1 (centres unmarked) [hydrochloride] = 7.6
CC(C(=O)O)c1cccc(Oc2ccccc2)c1 (centres unmarked) = 7.3
CC(CN(C)C1CC1)c1cccc(Oc2ccccc2)c1 (centres unmarked) [hydrochloride] = 6.9
CN(C)CCc1cccc(Oc2ccccc2)c1.Cl [hydrochloride] = 8.5
CNCCC(C)c1cccc(Oc2ccccc2)c1 (centres unmarked) [hydrochloride] = 10
CC(CN(C)CC1CC1)c1cccc(Oc2ccccc2)c1 (centres unmarked) [hydrochloride] = 8.3
C=CCNCC(C)c1cccc(Oc2ccccc2)c1 (centres unmarked) [hydrochloride] = 8.5
CC(CNC1CC1)c1cccc(Oc2ccccc2)c1 (centres unmarked) [hydrochloride] = 7.9
CC(c1cccc(Oc2ccccc2)c1)c1nnn[nH]1 (centres unmarked) = 5.8
O=C(O)Cc1cccc(Oc2ccccc2)c1 = 6.9
CNCCc1cccc(Oc2ccccc2)c1.Cl [hydrochloride] = 9.7
CC(C)=CCN(C)CC(C)c1cccc(Oc2ccccc2)c1 (centres unmarked) [hydrochloride] = 8.5
CC(CN(C)CCc1ccccc1)c1cccc(Oc2ccccc2)c1 (centres unmarked) [hydrochloride] = 7.7

====

Test system: acetic acid-induced writhing in mice
experimentDescription: Analgesic writhing test (inhibition of acetic acid-induced writhing)
Format: in vivo, Standard strain albino male mice
experimentalSetup: Mus musculus, sc, read-out: Analgesic Writhing Test Subcutaneous ED50
Counter-ions that a name gives are not always drawn.
testReadout: ED50 (mg/kg)
Provide the reading as a plain figure in mg/kg.

Solved entries (count: 3):
NCCc1cccc(Oc2ccccc2)c1 [CH2 CH2 NH2 . HCl] = 4
CC(=O)Oc1ccccc1C(=O)O [A.S.A., reference compound] = 20
CN(C)CCc1cccc(Oc2ccccc2)c1 [drawing 41] = 35

Now consider the entry below.
*Q* Looking for the measured ED50 of "CNCCc1cccc(Oc2ccccc2)c1.Cl" , can you help?
*A* 25

The reported numbers originate from patent US4145557A.
